Values from the supplement of paper PMC11451515

- Tested on: P12-Ichikawa
- experiment description: cell viability relative to DMSO control; higher = less cytotoxic
- protocol conditions: HPLM + 10% dialyzed FBS; 48 h; 5.12 µM
Just a reminder that ties go to f: only cell viability strictly below 90% counts as t.

{"molecule": "CCOC1=CC=CC=C1N\\2C(=O)C3=C(C=CC=C3)\\N=C2C(C)N4CCN(CC4)C(=O)COC5=CC=C(Cl)C=C5 (stereo not given)", "assigned label": "t"}
{"molecule": "CC(NCCc1ccc(O)cc1)C(O)c1ccc(O)cc1 (stereo not given)", "assigned label": "f"}
{"molecule": "CNC(=O)Nc1ccc(-c2nc(N3CC4CCC(C3)O4)c3cnn(C4CCC5(CC4)OCCO5)c3n2)cc1", "assigned label": "t"}

---

Reported cell viability by item:
- Tested on: SEM cells
- experiment description: cell viability relative to DMSO control; higher = less cytotoxic
- protocol conditions: RPMI 5 mM glucose + 10% FBS; 48 h; 0.0632 µM

{"compound": "CC(COc1ccccc1)N(CCCl)Cc1ccccc1 (stereo not drawn)", "cell viability": "112%"}
{"compound": "Nc1nc(Cl)nc2c1ncn2[C@@H]1O[C@H](CO)[C@@H](O)[C@@H]1F", "cell viability": "14.3%"}
{"compound": "C[C@]12CC[C@H]3[C@@H](CCC/4=C/C(=O)CC[C@]34C)[C@@H]1CC[C@@H]2OC(=O)CCC5CCCC5", "cell viability": "122%"}
{"compound": "N#C/N=C(\\NCCCCCCOc1ccc(Cl)cc1)Nc1ccncc1", "cell viability": "8.63%"}
{"compound": "N#C[C@H](O[C@@H]1O[C@H](CO[C@@H]2O[C@H](CO)[C@@H](O)[C@H](O)[C@H]2O)[C@@H](O)[C@H](O)[C@H]1O)c1ccccc1", "cell viability": "99.8%"}
{"compound": "CNC(=O)Nc1ccc(-c2nc(N3CC4CCC(C3)O4)c3cnn(C4CCC5(CC4)OCCO5)c3n2)cc1", "cell viability": "43.2%"}
{"compound": "CCOC(=O)Nc1ccc(NCc2ccc(F)cc2)nc1N", "cell viability": "125%"}
{"compound": "CNC(=O)CN1CCC(Oc2cc3c(Nc4cccc(Cl)c4F)ncnc3cc2OC)CC1", "cell viability": "120%"}
{"compound": "O=c1[nH]c(=O)n(C2CCCO2)cc1F (stereo not drawn)", "cell viability": "115%"}
{"compound": "CC(=O)[C@]1(O)Cc2c(O)c3c(c(O)c2[C@@H](O[C@H]2C[C@H](N)[C@H](O)[C@H](C)O2)C1)C(=O)c1ccccc1C3=O", "cell viability": "97.8%"}
{"compound": "OC(CN1CCN(c2cccc(Cl)c2)CC1)C(c1ccccc1)c1ccccc1 (stereo not drawn)", "cell viability": "111%"}
{"compound": "Nc1ncnc2c1nc(Cl)n2[C@@H]1O[C@H](CO)[C@@H](O)[C@H]1O", "cell viability": "136%"}
{"compound": "C[C@H]1COC/2=C1/C(=O)C(=O)C3=C4CCCC(C)(C)C4=CC=C23", "cell viability": "141%"}
{"compound": "Cc1onc(-c2ccccc2)c1C(=O)N[C@@H]1C(=O)N2[C@@H]1SC(C)(C)[C@@H]2C(=O)[O-].[Na+]", "cell viability": "108%"}
{"compound": "CCN1CCCC1CNC(=O)c1cc([S+](N)(=O)[O-])ccc1OC (stereo not drawn)", "cell viability": "105%"}
{"compound": "CCOC1=CC=CC=C1N\\2C(=O)C3=C(C=CC=C3)\\N=C2C(C)N4CCN(CC4)C(=O)COC5=CC=C(Cl)C=C5 (stereo not drawn)", "cell viability": "110%"}
{"compound": "CCNC(=O)Nc1ccc2ncc(Nc3ccc(C)cc3)nc2n1", "cell viability": "124%"}
{"compound": "C[C@@]1(C(=O)Nc2ccc(F)nc2)CCCN1c1nc(Nc2cc(C3CC3)[nH]n2)c2cccn2n1", "cell viability": "72.6%"}
